This collection of values is drawn from patent US12091426B2.

target: HPK1 (Homo sapiens, UniProt Q92918); construct: A HiBiT tag was introduced by CRISPR on the N terminus of HPK1 in Jurkat cells; host or cells: Jurkat cells (ATCC TIB-152), monoclonal line with CRISPR knock-in of HiBiT at the endogenous HPK1 locus; assay: HPK1 Cellular HiBit Degradation Assay; type: cell-based; details: HiBiT HPK1 Jurkat cells, 24 hrs; concentration at which 50% of HPK1 was remaining; read-out: DC50 Category
Sequence (Q92918 whole entry): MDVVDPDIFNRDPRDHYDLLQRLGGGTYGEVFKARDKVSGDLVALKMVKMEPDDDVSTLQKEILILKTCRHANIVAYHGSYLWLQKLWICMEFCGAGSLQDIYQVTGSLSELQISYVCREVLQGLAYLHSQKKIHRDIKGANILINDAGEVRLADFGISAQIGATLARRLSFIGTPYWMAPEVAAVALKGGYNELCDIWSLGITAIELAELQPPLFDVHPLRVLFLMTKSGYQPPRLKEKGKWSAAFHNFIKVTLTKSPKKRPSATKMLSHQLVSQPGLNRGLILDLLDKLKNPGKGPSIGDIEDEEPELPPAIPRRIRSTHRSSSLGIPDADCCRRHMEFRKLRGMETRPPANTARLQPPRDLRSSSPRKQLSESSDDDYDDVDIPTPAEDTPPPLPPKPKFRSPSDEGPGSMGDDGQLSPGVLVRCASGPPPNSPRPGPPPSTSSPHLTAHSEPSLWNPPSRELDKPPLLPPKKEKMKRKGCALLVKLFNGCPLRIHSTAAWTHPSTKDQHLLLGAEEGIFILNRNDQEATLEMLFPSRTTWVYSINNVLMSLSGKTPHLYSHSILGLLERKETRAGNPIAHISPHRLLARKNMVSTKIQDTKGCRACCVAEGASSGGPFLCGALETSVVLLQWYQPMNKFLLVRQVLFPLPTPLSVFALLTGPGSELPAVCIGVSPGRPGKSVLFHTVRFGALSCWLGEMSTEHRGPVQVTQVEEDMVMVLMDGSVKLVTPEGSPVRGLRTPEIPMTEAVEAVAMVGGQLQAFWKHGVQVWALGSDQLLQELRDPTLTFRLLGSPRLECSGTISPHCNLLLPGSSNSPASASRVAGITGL
measurement label: DC50

compound: CC(C)n1cnc2cc(-c3ccc4c(c3)N([C@H]3C[C@@H](N5CCCCC5)C3)C(=O)C43CCN(C(=O)C4CCN(C(=O)C5CCN(c6ccc(C7CCC(=O)NC7=O)cn6)CC5)C5(CCC5)C4)CC3)nc(NC3CC3)c21 (mixture of isomers)
result: < 100 nM
//
compound: CC(C)n1cnc2cc(-c3ccc4c(c3)N(C3CC(N5CCCCC5)C3)C(=O)C43CCN(C(=O)C4CCC(C(=O)N5CCC(COc6ccc(C7CCC(=O)NC7=O)cc6)CC5)CC4)CC3)nc(NC3CC3)c21 (racemic)
result: < 100 nM
//
compound: CC(C)n1cnc2cc(-c3ccc4c(c3)N([C@H]3C[C@@H](N5CCCCC5)C3)C(=O)C43CCN(C(=O)C4CCN(C(=O)C5CCN(c6ccc(C7CCC(=O)NC7=O)cn6)CC5)CC4)CC3)nc(Nc3ccncc3F)c21 (mixture of isomers)
result: < 100 nM
//
compound: Cc1cc(C2CCC(=O)NC2=O)cnc1N1CCC(C(=O)N2CCC(C)(C(=O)N3CCC4(CC3)C(=O)N(C3CC(N5CCCCC5)C3)c3cc(-c5cc6ncn(C(C)C)c6c(NC6CC6)n5)ccc34)CC2)CC1 (racemic)
result: < 100 nM

Prompt: Identify the measured DC50 of CC(C)n1cnc2cc(-c3ccc4c(c3)N([C@H]3C[C@@H](N5CCCCC5)C3)C(=O)C43CCN(C(=O)C4CC5CCC(C4)N5C(=O)C4CCN(c5ccc(C6CCC(=O)NC6=O)cc5)CC4)CC3)nc(NC3CC3)c21 (mixture of isomers) for HPK1 (Homo sapiens, UniProt Q92918).
Response: < 100 nM

---

biological target: HPK1 (Homo sapiens); construct: A HiBiT tag was introduced by CRISPR on the N terminus of HPK1 in Jurkat cells; host or cells: Jurkat cells (ATCC TIB-152), monoclonal line with CRISPR knock-in of HiBiT at the endogenous HPK1 locus; assay: HPK1 Cellular HiBit Degradation Assay; type: cell-based; conditions: Jurkat, HiBiT HPK1 Jurkat cells, 24 hrs; maximum degradation vs DMSO vehicle control; read-out: Dmax Category
measurement label: Dmax

compound: CC(C)n1cnc2cc(-c3ccc4c(c3)N([C@H]3C[C@@H](N5CCCCC5)C3)C(=O)C43CCN(C(=O)C4[C@@H]5C[C@H]4CN(C(=O)CC4CCN(c6ccc(C7CCC(=O)NC7=O)cn6)CC4)C5)CC3)nc(NC3CC3)c21 (some centres unmarked) [Example 240]
Dmax: > 85%

Now look at this entry.
Prompt: Entry under review: CC(C)n1cnc2cc(-c3ccc4c(c3)N([C@H]3C[C@@H](N5CCCCC5)C3)C(=O)C43CCN(C(=O)C[C@@H]4CCCN(C(=O)C5CCN(c6ccc(C7CCC(=O)NC7=O)cn6)CC5)C4)CC3)nc(NC3CC3)c21 (mixture of isomers) [Example 298] . Reported Dmax?
Response: 50 to 70%

---

Readings of DC50 for the listed compounds
Molecular target: HPK1 (Homo sapiens, UniProt Q92918)
Construct: A HiBiT tag was introduced by CRISPR on the N terminus of HPK1 in Jurkat cells; host or cells: Jurkat cells (ATCC TIB-152), monoclonal line with CRISPR knock-in of HiBiT at the endogenous HPK1 locus
Test: HPK1 Cellular HiBit Degradation Assay
Format: cell-based
Conditions: HiBiT HPK1 Jurkat cells, 24 hrs; concentration at which 50% of HPK1 was remaining; read-out: DC50 Category
Procedure: HPK1 Cellular HiBit Degradation Assay A HiBiT tag was introduced by CRISPR on the N terminus of HPK1 in Jurkat cells (ATCC® TIB-152) to allow quantitation of HPK1 protein levels in a monoclonal human cell line. […] Cells were incubated for 10 min at room temperature and luminescence was read on an EnVision plate reader (Perkin Elmer, 0.1 sec per well). […] Percent HPK1 remaining per sample was calculated as follows: […]

Sample answers from the record:
compound: CC(C)n1cnc2cc(-c3ccc4c(c3)N([C@H]3C[C@@H](N5CCCCC5)C3)C(=O)C43CCN(C(=O)C4CN(C(=O)C5CCN(c6ccc(C7CCC(=O)NC7=O)cc6)CC5)CC(F)(F)C4)CC3)nc(NC3CC3)c21 (mixture of isomers)
DC50: 100 to 500 nM

compound: CC(C)n1cnc2cc(-c3ccc4c(c3)N([C@H]3C[C@@H](N5CCCCC5)C3)C(=O)C43CCN(C(=O)[C@@H]4CCN(C(=O)[C@H]5CC[C@H](Nc6cccc(C7CCC(=O)NC7=O)n6)CC5)C4)CC3)nc(Nc3ccccc3F)c21 (mixture of isomers)
DC50: 500 to 1000 nM

compound: CC(C)n1cnc2cc(-c3ccc4c(c3)N([C@H]3C[C@@H](N5CCCCC5)C3)C(=O)C43CCN(C(=O)[C@@H]4CCN(C(=O)[C@H]5CC[C@H](N(C)c6ccc(C7CCC(=O)NC7=O)cn6)CC5)C4)CC3)nc(Nc3ccncc3F)c21 (mixture of isomers)
DC50: < 100 nM

compound: CC(C)n1cnc2cc(-c3ccc4c(c3)N([C@H]3C[C@@H](N5CCCCC5)C3)C(=O)C43CCN(C(=O)C4CCN(S(=O)(=O)C5CCN(c6ccc(C7CCC(=O)NC7=O)cn6)CC5)CC4)CC3)nc(NC3CC3)c21 (mixture of isomers)
DC50: < 100 nM

compound: CC(C)n1cnc2cc(-c3ccc4c(c3)N([C@H]3C[C@@H](N5CCCCC5)C3)C(=O)C43CCN(C(=O)[C@H]4[C@@H]5CN(C(=O)C6CCN(c7ccc(C8CCC(=O)NC8=O)cn7)CC6)C[C@@H]54)CC3)nc(NC3CC3)c21 (mixture of isomers)
DC50: < 100 nM

Prompt: Can you share its DC50? I mean this compound: Cc1cc(C(=O)N2CCN(c3ccc4c(c3)C(=O)N(C3CCC(=O)NC3=O)C4=O)CC2)ccc1C(=O)N1CCC2(CC1)C(=O)N([C@H]1C[C@@H](N3CCCCC3)C1)c1cc(-c3cc4ncn(C(C)C)c4c(Nc4ccccc4F)n3)ccc12 (mixture of isomers)
Response: 100 to 500 nM

Prompt: Ok, now CC(C)n1cnc2cc(-c3ccc4c(c3)N([C@H]3C[C@@H](N5CC6CCC(C6)C5)C3)C(=O)C43CCN(C(=O)C4(C)CCN(C(=O)CC5CCN(c6ccc(C7CCC(=O)NC7=O)cn6)CC5)CC4)CC3)nc(NC3CC3)c21 (mixture of isomers)
Response: < 100 nM

Prompt: Then this compound: CC(C)n1cnc2cc(-c3ccc4c(c3)N([C@H]3C[C@@H](N5CCCCC5)C3)C(=O)C43CCN(C(=O)[C@@H]4CCN(C(=O)C5CCN(c6ccc(C7CCC(=O)NC7=O)cn6)CC5)C4)CC3)nc(NC3CC3)c21 (mixture of isomers)
Response: < 100 nM

Prompt: Also need CC(C)n1cnc2cc(-c3ccc4c(c3)N([C@H]3C[C@@H](N5CCCCC5)C3)C(=O)C43CCN(C(=O)C4(C)CCN(C(=O)C5CCN(c6ccc(C7CCC(=O)NC7=O)cn6)CC5)CC4)CC3)nc(N[C@H]3C[C@H](C#N)C3)c21 (stereo partly shown) , thanks.
Response: 100 to 500 nM

---

target: HPK1 (Homo sapiens, UniProt Q92918); construct: A HiBiT tag was introduced by CRISPR on the N terminus of HPK1 in Jurkat cells; host or cells: Jurkat cells (ATCC TIB-152), monoclonal line with CRISPR knock-in of HiBiT at the endogenous HPK1 locus; assay: HPK1 Cellular HiBit Degradation Assay; assay type: cell-based; details: HiBiT HPK1 Jurkat cells, 24 hrs; concentration at which 50% of HPK1 was remaining; read-out: DC50 Category
measurement label: DC50

compound: CC(C)n1cnc2cc(-c3ccc4c(c3)N([C@H]3C[C@@H](N5CCCCC5)C3)C(=O)C43CCN(C(=O)N4CCN(C(=O)C5CCN(c6ccc(C7CCC(=O)NC7=O)cn6)CC5)CC4)CC3)nc(NC3CC3)c21 (stereo partly shown) [Example 180]
DC50: < 100 nM

Prompt: Suppose we examine the compound CC(C)n1cnc2cc(-c3ccc4c(c3)N([C@H]3C[C@@H](N5CCCCC5)C3)C(=O)C43CCN(C(=O)C4(C)CCN(C(=O)C5CCN(c6ccc(C7CCC(=O)NC7=O)cn6)CC5)CC4)CC3)nc(N(C)C3CC3)c21 (stereo partly shown) [Example 171] ; what DC50 value has been reported?
Response: 100 to 500 nM

Prompt: Another compound to look at: CC(C)n1cnc2cc(-c3ccc4c(c3)N([C@H]3C[C@@H](N5CCCCC5)C3)C(=O)C43CCN(C(=O)C4CCC5(CC4)CCN(C(=O)C4CCN(c6ccc(C7CCC(=O)NC7=O)cn6)CC4)CC5)CC3)nc(NC3CC3)c21 (mixture of isomers) [Example 295]
Response: 100 to 500 nM

Prompt: What do you get for CC(C)n1cnc2cc(-c3ccc4c(c3)N([C@H]3C[C@@H](N5CCCCC5)C3)C(=O)C43CCN(C(=O)C4CCN(C(=O)C5CCN(c6ccc(C7CCC(=O)NC7=O)nc6)CC5)CC4)CC3)nc(Nc3ccccc3F)c21 (stereo partly shown) [Example 85] ?
Response: < 100 nM
